# System: HIV strain D
# Protocol notes: Cellular anti-HIV assay, clinically isolated mutant strain D
# Assay type: cell-based
# Condition details: FR=EC50 (mutant strain)/EC50 (HIV-1 strain LAI)
Measurement name: D (FR towards mutant D)
Write the number on its own, no unit after it.

Worked examples follow.
Compound	Reported value
CC(=O)OC(c1ccccc1)c1nc(-c2ccc(S(=O)(=O)N(CC(C)C)CC(O)C(Cc3ccccc3)NC(=O)OC3COC4OCCC34)cc2)co1 (stereo not drawn)	17
CCCc1nc(-c2ccc(S(=O)(=O)N(CC(C)C)CC(O)C(Cc3ccccc3)NC(=O)OC3COC4OCCC34)cc2)co1 (stereo not drawn)	12.9
CC(C)CN(CC(O)C(Cc1ccccc1)NC(=O)OC1COC2OCCC12)S(=O)(=O)c1ccc(-c2csc(NCCCN(C)C)n2)cc1 (stereo not drawn)	3.8
CC(C)CN(C[C@@H](O)[C@H](Cc1ccccc1)NC(=O)O[C@H]1CO[C@H]2OCC[C@H]21)S(=O)(=O)c1ccc(-c2noc(-c3ccco3)n2)cc1	14.8
Cc1nc(-c2ccc(S(=O)(=O)N(CC(C)C)CC(O)C(Cc3ccccc3)NC(=O)OC3COC4OCCC34)cc2)co1 (stereo not drawn)	6.2

Now let's try a different one.
Consider the compound shown here: Cc1cc(-c2nc(-c3ccc(S(=O)(=O)N(CC(C)C)CC(O)C(Cc4ccccc4)NC(=O)OC4COC5OCCC45)cc3)co2)no1 (stereo not drawn) What is its recorded D (FR towards mutant D)? 32
